Quick reference for IC50 among some compounds
Target: system Xc^− (Homo sapiens)
Sequence (Q9UPY5 1-501): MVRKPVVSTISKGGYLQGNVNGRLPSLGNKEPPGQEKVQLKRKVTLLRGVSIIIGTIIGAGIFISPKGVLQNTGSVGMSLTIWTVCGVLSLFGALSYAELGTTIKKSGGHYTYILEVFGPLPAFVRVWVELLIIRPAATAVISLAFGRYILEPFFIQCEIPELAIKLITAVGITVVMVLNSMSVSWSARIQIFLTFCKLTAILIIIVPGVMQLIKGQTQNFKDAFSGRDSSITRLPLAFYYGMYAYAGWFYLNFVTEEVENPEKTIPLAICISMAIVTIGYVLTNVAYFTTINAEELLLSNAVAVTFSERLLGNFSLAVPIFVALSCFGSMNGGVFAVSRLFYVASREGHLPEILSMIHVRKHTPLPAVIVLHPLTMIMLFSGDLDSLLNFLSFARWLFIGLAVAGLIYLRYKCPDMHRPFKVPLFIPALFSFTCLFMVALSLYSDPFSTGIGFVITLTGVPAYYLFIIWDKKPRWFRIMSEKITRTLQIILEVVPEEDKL
Sequence (P08195 1-529 partner): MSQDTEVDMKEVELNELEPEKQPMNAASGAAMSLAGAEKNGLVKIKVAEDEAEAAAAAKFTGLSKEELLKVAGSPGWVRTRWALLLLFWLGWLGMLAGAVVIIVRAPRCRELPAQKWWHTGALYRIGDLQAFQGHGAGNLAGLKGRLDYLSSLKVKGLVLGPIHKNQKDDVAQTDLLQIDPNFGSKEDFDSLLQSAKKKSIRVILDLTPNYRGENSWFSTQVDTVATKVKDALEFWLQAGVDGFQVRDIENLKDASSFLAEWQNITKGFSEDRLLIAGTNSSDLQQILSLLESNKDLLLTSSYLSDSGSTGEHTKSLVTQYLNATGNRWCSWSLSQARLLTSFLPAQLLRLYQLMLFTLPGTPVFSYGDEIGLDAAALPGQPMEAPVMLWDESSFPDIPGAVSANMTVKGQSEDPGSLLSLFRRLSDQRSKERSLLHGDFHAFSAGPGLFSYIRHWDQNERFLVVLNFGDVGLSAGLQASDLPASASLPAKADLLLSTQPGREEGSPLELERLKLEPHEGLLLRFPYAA
Assay: [^14C]L-Cystine uptake assay
Assay type: cell-based
Parameters: endogenous in cells; host or cells: H4 cells
Conditions: H4 cells, sodium-free HEPES buffer, 0.5 μM L-[14C]Cystine and 4.5 μM L-Cystine, 1 hour at 37° C.; read-out: pIC50 [^14C] L-Cystine uptake assay (converted)

- compound: "N#Cc1cc2c(cc1F)-c1cccnc1CC(=O)N2CC(=O)Nc1ccc(C(F)(F)F)cc1 [#69]"
  result: "0.0158 to 0.0398 µM"
- compound: "COc1cc2c(c(OC)n1)-c1cccnc1C(C)C(=O)N2CC(=O)Nc1ccc(C(F)(F)F)nc1 (single isomer, unassigned) [#337]"
  result: "0.0158 to 0.0398 µM"
- compound: "CC1C(=O)N(CC(=O)Nc2ccc(Cl)c(F)c2)c2cc(C3CN(CC(F)F)C3)cc(F)c2-c2cccnc21 (stereo not drawn) [#345]"
  result: "0.0158 to 0.0398 µM"
- compound: "Cc1cc2c(cn1)-c1cccnc1C(C)C(=O)N2CC(=O)Nc1ccc(Cl)c(F)c1 (single isomer, unassigned) [#251]"
  result: "< 0.0158 µM"
- compound: "Cc1cc2c(c(Cl)n1)-c1cc(F)cnc1C(C)C(=O)N2CC(=O)Nc1ccc(C(C)(F)F)cc1 (single isomer, unassigned) [#423]"
  result: "< 0.0158 µM"
- compound: "Cc1cc2c(c(Cl)n1)-c1ccnn1C(C)C(=O)N2CC(=O)Nc1ccc(C(F)F)cc1 (single isomer, unassigned) [#386]"
  result: "< 0.0158 µM"
- compound: "COc1ncc(F)c2c1-c1ccccc1C(C)C(=O)N2CC(=O)Nc1ccc(Cl)c(F)c1 (stereo not drawn) [#400]"
  result: "0.1 to 0.501 µM"
- compound: "Cc1cc2c(cc1C)N(CC(=O)Nc1ccc(C(F)(F)F)cc1)C(=O)Cc1ccncc1-2 [#24]"
  result: "0.0158 to 0.0398 µM"

So what does the record say about IC50 for Cc1cc2c(c(F)n1)-c1cccnc1C(F)C(=O)N2CC(=O)Nc1ccc(C(F)(F)F)cc1 (stereo not drawn) [#101] ?
< 0.0158 µM

----------
target: system Xc^− (Homo sapiens); assay: Cystine-induced glutamate release assay; format: cell-based; parameters: endogenous in cells; host or cells: H4 cells; settings: H4 cells, sodium-free HEPES buffer, 50 μM L-Cystine, 2 hours, Amplex Red glutamate readout; read-out: pIC50 Cystine-induced glutamate release assay (converted)
Quick reference for IC50 among some compounds

// worked examples, IC50 included
- compound: "COc1nc(C)cc2c1-c1cccnc1C(C)C(=O)N2CC(=O)Nc1ccc(C(F)(F)F)cc1 (stereo not shown)"
  target: "system Xc^− (Homo sapiens)"
  assay readout: "IC50"
  result: "15.8 to 39.8 nM"
- compound: "Cc1cc2c(c(Cl)n1)-c1cccnc1N(C)C(=O)N2CC(=O)Nc1ccc(C(F)(F)F)cc1"
  target: "system Xc^− (Homo sapiens)"
  assay readout: "IC50"
  result: "15.8 to 39.8 nM"
- compound: "Cc1cc2c(c(=O)n1C)-c1cccnc1C(C)C(=O)N2CC(=O)Nc1ccc(Cl)c(F)c1 (stereo not shown)"
  target: "system Xc^− (Homo sapiens)"
  assay readout: "IC50"
  result: "< 15.8 nM"
- compound: "CC1C(=O)N(CC(=O)Nc2ccc(Cl)c(F)c2)c2cc(C3CN(CC(F)F)C3)cc(F)c2-c2cccnc21 (stereo not shown)"
  target: "system Xc^− (Homo sapiens)"
  assay readout: "IC50"
  result: "15.8 to 39.8 nM"
- compound: "CC1C(=O)N(CC(=O)Nc2ccc(Cl)c(F)c2)c2cc(C#N)ccc2-c2cc(F)cnc21 (single isomer, unassigned)"
  target: "system Xc^− (Homo sapiens)"
  assay readout: "IC50"
  result: "< 15.8 nM"
- compound: "Cc1cc2c(cn1)-c1ccnn1C(C)C(=O)N2CC(=O)Nc1ccc(Cl)c(F)c1 (single isomer, unassigned)"
  target: "system Xc^− (Homo sapiens)"
  assay readout: "IC50"
  result: "15.8 to 39.8 nM"
- compound: "Cc1cc2c(c(F)n1)-c1cccnc1[C@@H](C)C(=O)N2CC(=O)Nc1ccc(C(C)(F)F)c(F)c1 (single isomer, unassigned)"
  target: "system Xc^− (Homo sapiens)"
  assay readout: "IC50"
  result: "15.8 to 39.8 nM"
- compound: "Cc1cc2c(n(C)c1=O)-c1ccc(Cl)cc1C(C)C(=O)N2CC(=O)Nc1ccc(Cl)c(F)c1 (stereo not shown)"
  target: "system Xc^− (Homo sapiens)"
  assay readout: "IC50"
  result: "15.8 to 39.8 nM"
- compound: "Cc1cc2c(c(F)n1)-c1nccnc1C(C)C(=O)N2CC(=O)Nc1ccc(Cl)c(F)c1 (single isomer, unassigned)"
  target: "system Xc^− (Homo sapiens)"
  assay readout: "IC50"
  result: "39.8 to 100 nM"

Consider the additional compound presented here.
Form field - read-out: IC50; system: system Xc^− (Homo sapiens); submitted item: COc1cc2c(c(F)n1)-c1cccnc1C(C)C(=O)N2CC(=O)Nc1ccc(C(F)(F)F)cc1 (stereo not shown)
15.8 to 39.8 nM

----------
Molecular target: system Xc^− (Homo sapiens, UniProt Q9UPY5)
Sequence (Q9UPY5 1-501): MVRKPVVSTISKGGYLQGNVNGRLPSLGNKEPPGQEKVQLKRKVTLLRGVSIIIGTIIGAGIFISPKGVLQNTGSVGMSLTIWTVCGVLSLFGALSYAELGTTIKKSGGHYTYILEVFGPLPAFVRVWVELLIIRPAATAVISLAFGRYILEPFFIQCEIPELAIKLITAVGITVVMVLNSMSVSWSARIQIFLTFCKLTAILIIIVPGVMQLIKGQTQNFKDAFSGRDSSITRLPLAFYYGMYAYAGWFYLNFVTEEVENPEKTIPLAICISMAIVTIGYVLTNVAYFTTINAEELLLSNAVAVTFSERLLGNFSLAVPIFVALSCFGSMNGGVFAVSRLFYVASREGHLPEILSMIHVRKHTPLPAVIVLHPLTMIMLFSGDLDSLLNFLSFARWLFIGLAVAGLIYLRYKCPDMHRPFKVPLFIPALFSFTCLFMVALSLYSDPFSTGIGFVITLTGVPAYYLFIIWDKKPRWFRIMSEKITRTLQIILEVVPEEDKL
Sequence (P08195 1-529 partner): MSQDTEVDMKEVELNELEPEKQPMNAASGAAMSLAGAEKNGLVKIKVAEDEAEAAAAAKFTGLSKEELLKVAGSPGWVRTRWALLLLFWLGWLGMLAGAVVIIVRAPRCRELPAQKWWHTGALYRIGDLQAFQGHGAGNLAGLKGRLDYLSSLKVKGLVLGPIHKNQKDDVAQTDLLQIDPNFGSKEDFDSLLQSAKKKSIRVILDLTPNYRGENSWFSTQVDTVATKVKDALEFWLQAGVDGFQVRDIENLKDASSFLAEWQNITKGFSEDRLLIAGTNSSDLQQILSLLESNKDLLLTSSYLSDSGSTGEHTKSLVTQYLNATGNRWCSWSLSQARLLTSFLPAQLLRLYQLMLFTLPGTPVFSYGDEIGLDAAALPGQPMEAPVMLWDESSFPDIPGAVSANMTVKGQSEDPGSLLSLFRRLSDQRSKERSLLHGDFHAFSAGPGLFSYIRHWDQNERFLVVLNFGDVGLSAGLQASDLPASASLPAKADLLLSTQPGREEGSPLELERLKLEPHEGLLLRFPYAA
Experiment: [^14C]L-Cystine uptake assay
Assay type: cell-based
Set-up: endogenous in cells; host or cells: H4 cells
Settings: H4 cells, sodium-free HEPES buffer, 0.5 μM L-[14C]Cystine and 4.5 μM L-Cystine, 1 hour at 37° C.; read-out: pIC50 [^14C] L-Cystine uptake assay (converted)
assay readout: IC50

- molecule: "CC1C(=O)N(CC(=O)Nc2ccc(Cl)c(F)c2)c2cc(F)nc(OCCO)c2-c2cccnc21 (stereo not shown)"
  result: "39.8 to 100 nM"
- molecule: "Cc1cc2c(c(F)n1)-c1cc(F)cnc1CC(=O)N2CC(=O)Nc1ccc(C(F)(F)F)cc1"
  result: "15.8 to 39.8 nM"
- molecule: "CC1C(=O)N(CC(=O)Nc2ccc(C(F)F)cc2)c2cc(N3CC(F)C3)nc(F)c2-c2cccnc21 (single isomer, unassigned)"
  result: "< 15.8 nM"

Consider the additional molecule presented here.
Form field - read-out: IC50; system: system Xc^− (Homo sapiens, UniProt Q9UPY5); submitted item: "Cc1cc2c(c(F)n1)-c1ccnnc1CC(=O)N2CC(=O)Nc1ccc(C(F)(F)F)cc1"
39.8 to 100 nM
